- PROTOCOL_DETAILS: Cytotoxicity, resazurin-based reductase assay
- Assay type: cell-based, human
- MEASUREMENT_PARAMETERS: human; HepG2, 48 h exposure, resazurin; mean ± SD, 3–6 independent experiments
READOUT_LABEL: IC50 at 48 h (µM)
Report the value in µM with no unit label.

Quote IC50 at 48 h reported for C[C@@H]1C[C@@H]([C@H](O)CC2CC(=O)NC(=O)C2)C(=O)[C@@H](C)C1 [Cycloheximide] please. 2.95

###

- Test system: P. falciparum asexual forms (3D7A)
- PROTOCOL_DETAILS: In vitro antiplasmodial activity on asexual stages (uptake of radiolabeled nucleic acid precursor), 3D7A
- Assay type: cell-based, Plasmodium falciparum
- MEASUREMENT_PARAMETERS: read-out: IC50 Activity against asexual forms (3D7A)
READOUT_LABEL: IC50 (nM)
Report the value in nM with no unit label.

# assay system P. falciparum asexual forms (3D7A): give IC50 of CC[C@H](C)[C@H](NC(=O)[C@H]([C@@H](C)CC)N(C)C(C)=O)C(=O)N[C@H](C(=O)N[C@@H](CC(C)C)C(=O)[C@@]1(C)CO1)[C@@H](C)O 8
